Tested on: HepG2
Assay: Antiproliferative activity against human HepG2 cells measured after 24 hrs by MTT assay
Assay type: functional, cell-based
Settings: HepG2, 24 h
Reported endpoint: pIC50
Please note pIC50 is a logarithmic value: minus log10 of concentration in mol/L. Answer with that number alone.

# input compound: Cn1cc(C(=O)N2CCN(S(=O)(=O)c3ccc(Cl)cc3)CC2)c2ccccc21 ; wanted: its pIC50
4.79

Which pIC50 value belongs to CCCn1cc(C(=O)N2CCN(S(=O)(=O)c3ccc(C)cc3)CC2)c2ccccc21 ?
4.60

Sample CCn1cc(C(=O)N2CCN(S(=O)(=O)c3ccc(Br)cc3)CC2)c2ccccc21 — what was its pIC50?
4.58

Which pIC50 is reported for this compound? O=C(c1cn(Cc2ccccc2)c2ccccc12)N1CCN(S(=O)(=O)c2ccc(Br)cc2)CC1
4.41

I would be grateful if you could share the reported pIC50 for CCCn1cc(C(=O)N2CCN(S(=O)(=O)c3ccc(Cl)cc3)CC2)c2ccccc21 .
4.30

So what does the record say about pIC50 for CCCn1cc(C(=O)N2CCN(S(=O)(=O)c3ccccc3)CC2)c2ccccc21 ?
4.53

Record request: pIC50 value, item Cn1cc(C(=O)N2CCN(S(=O)(=O)c3ccccc3)CC2)c2ccccc21
5.34

// pIC50 lookup, key: O=C(c1cn(Cc2ccccc2)c2ccccc12)N1CCN(S(=O)(=O)c2ccccc2)CC1
4.56

Which pIC50 is listed for Cc1ccc(S(=O)(=O)N2CCN(C(=O)c3cn(C)c4ccccc34)CC2)cc1 ?
5.74

Recorded pIC50 for CCn1cc(C(=O)N2CCN(S(=O)(=O)c3c(C(C)C)cc(C(C)C)cc3C(C)C)CC2)c2ccccc21 , please?
6.31

Please look up its pIC50: Cn1cc(C(=O)N2CCN(S(=O)(=O)c3ccc(Br)cc3)CC2)c2ccccc21
5.24

I'd like to know its pIC50. The compound in question is CCn1cc(C(=O)N2CCN(S(=O)(=O)c3ccccc3)CC2)c2ccccc21
4.83

// pIC50 lookup, key: CCn1cc(C(=O)N2CCN(S(=O)(=O)c3ccc(C)cc3)CC2)c2ccccc21
5.13

Need pIC50, item Cn1cc(C(=O)N2CCN(S(=O)(=O)c3ccc([N+](=O)[O-])cc3)CC2)c2ccccc21
4.55

Using the record for COc1cc2c(c(OC)c1OC)-c1ccc(OC)c(=O)cc1[C@@H](NC(C)=O)CC2 , report its pIC50.
6.19

Which pIC50 value is on record for CCCn1cc(C(=O)N2CCN(S(=O)(=O)c3c(C(C)C)cc(C(C)C)cc3C(C)C)CC2)c2ccccc21 ?
4.78

Request the reported pIC50 associated with CCn1cc(C(=O)N2CCN(S(=O)(=O)c3ccc([N+](=O)[O-])cc3)CC2)c2ccccc21
4.16

Item CCCn1cc(C(=O)N2CCN(S(=O)(=O)c3ccc(Br)cc3)CC2)c2ccccc21 has what recorded pIC50?
4.35

I am curious: what pIC50 value has been reported for Cc1ccc(S(=O)(=O)N2CCN(C(=O)c3cn(Cc4ccccc4)c4ccccc34)CC2)cc1 ?
4.48

Request the reported pIC50 associated with CC(C)c1cc(C(C)C)c(S(=O)(=O)N2CCN(C(=O)c3cn(Cc4ccccc4)c4ccccc34)CC2)c(C(C)C)c1
4.75

Data request, read-out pIC50, for CC(C)c1cc(C(C)C)c(S(=O)(=O)N2CCN(C(=O)c3cn(C)c4ccccc34)CC2)c(C(C)C)c1
6.35

Please give the measured pIC50 for this compound: CCn1cc(C(=O)N2CCN(S(=O)(=O)c3ccc(Cl)cc3)CC2)c2ccccc21
4.43
